system: Pseudomonas aeruginosa LL-1244; assay: in vitro antibacterial MIC, agar plate dilution; format: cell-based; conditions: Pseudomonas aeruginosa, LL1244, 18 h, 35° C., read-out: MIC
Quick list: MIC per entry.

If you can, please state the reported MIC value of CCCCCCCCCCCCOCC1CN(c2cc3c(cc2F)c(=O)c(C(=O)O)cn3CC)CCN1C (centres unmarked) .
> 256 µg/mL

If you can, please state the reported MIC value of CCn1cc(C(=O)O)c(=O)c2cc(F)c(N3CCN(C)C(c4ccn(C)n4)C3)cc21 (centres unmarked) .
> 128 µg/mL

If you can, please state the reported MIC value of CCCCCCCCCCCCOCC1CN(c2cc3c(cc2F)c(=O)c(C(=O)O)cn3CC)CCN1 (centres unmarked) .
> 256 µg/mL

If you can, please state the reported MIC value of CCCCCCOCC1CN(c2cc3c(cc2F)c(=O)c(C(=O)O)cn3CC)CCN1C (centres unmarked) .
> 256 µg/mL

If you can, please state the reported MIC value of CCn1cc(C(=O)O)c(=O)c2cc(F)c(N3CCN(C)C(c4cc5cc(Cl)ccc5o4)C3)cc21 (centres unmarked) .
> 256 µg/mL

---

Quick list: MIC per entry.
test system: Escherichia coli LL 311; assay: in vitro antibacterial MIC, agar plate dilution; type: cell-based; settings: Escherichia coli, LL311, 18 h, 35° C., read-out: MIC
Counter-ions that a name gives are not always drawn.
The response must be a number in µg/mL with no trailing unit.

Sample answers from the record:
[[record]]
compound = "CCn1cc(C(=O)O)c(=O)c2c(F)c(F)c(N3CCNC(c4ccsc4)C3)c(F)c21 (stereo not drawn)"
measurement_label = "MIC"
observed_value = 0.25

[[record]]
compound = "CCn1cc(C(=O)O)c(=O)c2cc(F)c(N3CCNC(c4ccccn4)C3)c(F)c21 (stereo not drawn)"
measurement_label = "MIC"
observed_value = 0.12


If you can, please state the reported MIC value of "CN1CCN(c2c(F)c(F)c3c(=O)c(C(=O)O)cn(C4CC4)c3c2F)CC1" .
0.015

If you can, please state the reported MIC value of CCn1cc(C(=O)O)c(=O)c2c(F)c(F)c(N3CCNC(C)C3)c(F)c21 (stereo not drawn) .
0.25

If you can, please state the reported MIC value of COCC1CN(c2cc3c(cc2F)c(=O)c(C(=O)O)cn3-c2ccc(F)cc2)CCN1 (stereo not drawn) .
0.25

If you can, please state the reported MIC value of CCn1cc(C(=O)O)c(=O)c2cc(F)c(N3CCN(C)C(c4ccn(C)n4)C3)cc21 (stereo not drawn) .
8

If you can, please state the reported MIC value of O=C(O)c1cn(C2CC2)c2cc(N3CCNC(c4ccoc4)C3)c(F)cc2c1=O (stereo not drawn) .
0.03

If you can, please state the reported MIC value of CCn1cc(C(=O)O)c(=O)c2cc(F)c(N3CCNC(c4ccncc4)C3)cc21 (stereo not drawn) .
1

If you can, please state the reported MIC value of O=C(O)c1cn(C2CC2)c2cc(N3CCNC(c4ccsc4)C3)c(F)cc2c1=O (stereo not drawn) [Example 98, monohydrochloride] .
0.03

---

Quick list: MIC per entry.
test system: Escherichia coli CMC 84-11; test: in vitro antibacterial MIC, agar plate dilution; type: cell-based; conditions: Escherichia coli, CMC8411, 18 h, 35° C., read-out: MIC
The response must be a number in µg/mL with no trailing unit.

Sample answers from the record:
[[record]]
compound = "O=C(O)c1cn(-c2ccc(F)cc2)c2cc(N3CCNC(c4ccco4)C3)c(F)cc2c1=O (centres unmarked) [Example 67]"
unit_text = "µg/mL"
observed_value = 0.12

[[record]]
compound = "CCn1cc(C(=O)O)c(=O)c2cc(F)c(N3CCN(C)C(c4ccn(C)n4)C3)cc21 (centres unmarked) [Example 109]"
unit_text = "µg/mL"
observed_value = 16

[[record]]
compound = "CCn1cc(C(=O)O)c(=O)c2c(F)c(F)c(N3CCNC(c4ccsc4)C3)c(F)c21 (centres unmarked) [Example 90]"
unit_text = "µg/mL"
observed_value = 0.25

[[record]]
compound = "CCn1cc(C(=O)O)c(=O)c2c(F)c(F)c(N3CCSCC3)c(F)c21 [Example 89]"
unit_text = "µg/mL"
observed_value = 1


Read the next record carefully.
Please tell me: MIC of CCn1cc(C(=O)O)c(=O)c2cc(F)c(N3CCNC(c4cc5ccccc5o4)C3)cc21 (centres unmarked) [Example 46] , system Escherichia coli CMC 84-11?
0.25
